- subject of test: FGF-R1 (Homo sapiens)
- Sequence (P11362 22-822): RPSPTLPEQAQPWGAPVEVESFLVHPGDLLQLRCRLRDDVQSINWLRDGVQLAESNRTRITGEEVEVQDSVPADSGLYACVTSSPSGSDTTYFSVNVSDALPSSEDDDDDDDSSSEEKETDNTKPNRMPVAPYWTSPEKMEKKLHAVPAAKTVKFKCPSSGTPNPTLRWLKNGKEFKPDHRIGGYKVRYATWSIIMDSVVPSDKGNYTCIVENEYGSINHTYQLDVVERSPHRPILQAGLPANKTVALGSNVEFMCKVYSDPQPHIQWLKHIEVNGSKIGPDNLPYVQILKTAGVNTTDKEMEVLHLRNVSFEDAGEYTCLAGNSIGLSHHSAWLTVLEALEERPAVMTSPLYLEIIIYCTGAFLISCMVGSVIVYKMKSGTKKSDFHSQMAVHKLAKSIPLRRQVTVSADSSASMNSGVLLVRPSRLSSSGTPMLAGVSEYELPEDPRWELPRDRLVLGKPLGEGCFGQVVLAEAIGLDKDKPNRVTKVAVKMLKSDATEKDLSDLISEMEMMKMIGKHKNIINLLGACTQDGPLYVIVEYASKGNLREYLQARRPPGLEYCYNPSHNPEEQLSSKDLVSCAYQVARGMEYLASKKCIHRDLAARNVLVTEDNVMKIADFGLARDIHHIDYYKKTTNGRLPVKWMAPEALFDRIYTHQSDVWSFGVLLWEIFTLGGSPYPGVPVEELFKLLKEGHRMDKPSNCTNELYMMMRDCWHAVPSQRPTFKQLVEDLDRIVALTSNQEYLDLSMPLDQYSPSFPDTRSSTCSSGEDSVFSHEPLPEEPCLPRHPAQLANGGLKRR
- assay overview: Kinase profiling (radiometric filter-binding)
- Format: biochemical
- condition: FGF-R1, 1 µM inhibitor; read-out: Residual activity, %
Square brackets hold non-standard residues; d marks the D form. Peptide text beside a SMILES is read from it. * marks the point of attachment. X3 = O=C(CCCCCNCc1nc2c(sc3cc(Br)cnc32)c(=O)[nH]1)*
Here the recorded remaining activity at 1 µM is given for each entry.
# value in %; strip the unit string

## Task Which value of remaining activity at 1 µM has been reported for N=C(N)NCCC[C@@H](NC(=O)CCCCCNCc1nc2c(sc3cc(Br)cnc32)c(=O)[nH]1)C(=O)N[C@H](CCCNC(=N)N)C(=O)N[C@H](CCCNC(=N)N)C(=O)N[C@H](CCCNC(=N)N)C(=O)N[C@H](CCCNC(=N)N)C(=O)N[C@H](CCCNC(=N)N)C(=O)N[C@H](CCCCN)C(N)=O [ARC-3126, BPTP-Ahx-(D-Arg)6-D-Lys-NH2] (X3-[dR][dR][dR][dR][dR][dR][dK]-NH2) in the records?
## Result 102

## Task Which value of remaining activity at 1 µM has been reported for `N=C(N)NCCC[C@@H](NC(=O)CNC(=O)[C@@H](CCCNC(=N)N)NC(=O)[C@@H](CCCNC(=N)N)NC(=O)CCCCCCCNCc1nc2c(sc3ccc(Br)cc32)c(=O)[nH]1)C(=O)N[C@H](CCCCN)C(N)=O` in the records?
## Result 126

## Task Which value of remaining activity at 1 µM has been reported for `N=C(N)NCCC[C@@H](NC(=O)CNC(=O)[C@@H](CCCNC(=N)N)NC(=O)[C@@H](CCCNC(=N)N)NC(=O)CCCCCCCNCc1nc2c(sc3cc(Br)cnc32)c(=O)[nH]1)C(=O)N[C@H](CCCCN)C(N)=O` in the records?
## Result 142

## Task Which value of remaining activity at 1 µM has been reported for `N=C(N)NCCC[C@@H](NC(=O)CCCCCNC(=O)Cn1cnc2c(I)c(I)c(I)c(I)c21)C(=O)N[C@H](CCCNC(=N)N)C(=O)N[C@H](CCCNC(=N)N)C(=O)N[C@H](CCCNC(=N)N)C(=O)N[C@H](CCCNC(=N)N)C(=O)N[C@H](CCCNC(=N)N)C(=O)N[C@H](CCCCN)C(N)=O` in the records?
## Result 100

Further cases:
## Task Which value of remaining activity at 1 µM has been reported for `N=C(N)NCCC[C@@H](NC(=O)CNC(=O)[C@@H](CCCNC(=N)N)NC(=O)[C@@H](CCCNC(=N)N)NC(=O)Cn1cc(CNCc2nc3c(sc4ccc(Br)cc43)c(=O)[nH]2)nn1)C(=O)N[C@H](CCCCN)C(N)=O` in the records?
## Result 110

Sourced from paper PMC8307404
